# assay-name: Blood Clearance in Sprague-Dawley rat at 5.2 mg/kg, iv
# Assay type: ADME, organism-based
# Design: dose 5.2 mg/kg, route intravenous
# condition-parameters: whole blood
measured-quantity: clearance (mL/min/kg)
Please reply with the bare figure in mL/min/kg and do not write the unit itself.

Form field clearance, entry N#Cc1ccc(C(O)(c2ccc(C(F)(F)F)cc2)c2cccnc2)cc1 (racemic) : 24.4

----------
# experimental-system: CYP3A4/5 (Homo sapiens, UniProt P08684+P20815)
# assay-name: Inhibition of CYP3A4/5 in human liver microsomes
# Type: ADME, Microsome
measured-quantity: pIC50
Note: pIC50 values are expressed as the negative base-10 logarithm of concentration in M.

Answered cases to consult:
The molecule listed as NC(=O)c1cccc(C(O)(c2cccnc2)c2ccc(Cl)cc2F)c1 (racemic) shows pIC50 equal to 5.41

The molecule listed as N#Cc1ccc(C(O)(c2ccc(C(F)(F)F)cc2)c2cccnc2)c(F)c1 (racemic) shows pIC50 equal to 5.39

For record CC(C)Oc1ccc(C(O)(c2cccnc2)c2ccc(Cl)cc2F)cc1 (racemic) the listed pIC50 is 5.96

The molecule NC(=O)c1cccc(C(O)(c2ccc(Cl)cc2)c2cccnc2)c1 (racemic) showed pIC50 equal to 5.59

Now turn to the next molecule.
N#Cc1ccc(C(O)(c2ccc(C(F)(F)F)cc2)c2cccnc2)cc1 (racemic) yielded pIC50 of 5.12
